Recorded result_ITMP values for a group of molecules are listed next.
Tested on: Vero-E6
Assay: primary screen, phospholipidosis by LipidTOX staining; higher = more effect of the substance
Conditions: 10 µM
From the text: To measure drug-induced PLD in Vero-E6 cells, we used the HCS LipidTOX Red Phospholipidosis Detection Reagent (Invitrogen, #H34351), which is non-toxic to cell growth and remains well retained after aldehyde fixation. […]
Out of some 5,400 compounds screened, about 190 (3.5%) showed an effect of 50% or more. This is one part of a sample in which strong results are shown more often than they occur. Positions of bridges follow the written chain, without caps; N, C: chain ends. Non-standard residues stand in square brackets, D forms with d. Residues, ends and D or L forms follow the SMILES beside them. *: point of attachment. Heptanoyl(5-Me) = CCC(C)CCCC(=O)*; Dab = NCC[C@H](N)C(=O)O

molecule: Fc1cc(-c2cccc3ncc(-c4cnn(C5CCNCC5)c4)nc23)cc(F)c1CN1CCOCC1
result_ITMP, %: 73.3

molecule: COc1ccc2[nH]c3nnc(C)c-3c(NCCOCCO)c2c1
result_ITMP, %: -1.31

molecule: C[C@]12CCC(=O)C=C1CC[C@@H]1[C@@H]2[C@@H](O)C[C@]2(C)C(=O)CC[C@@H]12
result_ITMP, %: -4.8

molecule: CCC(C)CCCC(=O)N[C@@H](CCN)C(=O)N[C@H](C(=O)N[C@@H](CCN)C(=O)N[C@H]1CCNC(=O)[C@H]([C@@H](C)O)NC(=O)[C@H](CCN)NC(=O)[C@H](CCN)NC(=O)[C@H](CC(C)C)NC(=O)[C@@H](CC(C)C)NC(=O)[C@H](CCN)NC1=O)[C@@H](C)O (stereo partly drawn) [R4A_0005175_001 / SPE_A18924964] ({Heptanoyl(5-Me)}-[Dab]T[Dab][Dab][Dab][dL]L[Dab][Dab]T; lactam 4-C)
result_ITMP, %: -1.3

molecule: CN1CCC(CNc2ccc3ncc(-c4cccc(OC(F)(F)F)c4)n3n2)CC1
result_ITMP, %: 62.4

molecule: c1ccc([C@@H]2C[C@H]2NC2CCNCC2)cc1
result_ITMP, %: 27.9

molecule: Cc1cc(Nc2cc(CN3CCOCC3)c3nc(C)c(Cc4ccc(Cl)cc4F)n3n2)[nH]n1
result_ITMP, %: 13

molecule: Nc1c(CC(=O)[O-])cccc1C(=O)c1ccc(Br)cc1
result_ITMP, %: 0.95

molecule: CCN(CC)CCCC(C)Nc1c2ccc(Cl)cc2nc2ccc(OC)cc12 (centres unmarked)
result_ITMP, %: 110

molecule: OC[C@@H](O)[C@@H](O)[C@@H](O)CO
result_ITMP, %: -6.6

molecule: COCc1nc2c(=O)n(C)c(=O)n(CC(C)C)c2[nH]1
result_ITMP, %: -0.95

molecule: Cc1c(-c2ccc(-c3ccccc3F)cc2)nc2ccc(F)cc2c1C(=O)[O-]
result_ITMP, %: 5.08

molecule: COc1cc(/C=C/C(=O)[O-])ccc1O
result_ITMP, %: -1.05

molecule: C/C(=N\NC(=S)NNC(=S)Nc1ccccc1Cl)c1ccccn1
result_ITMP, %: -0.18

molecule: CN(C)CCCCC(=O)Nc1ccc(NC(=S)NC(=O)c2ccc(C(C)(C)C)cc2)cc1
result_ITMP, %: 147

molecule: C[N+]1([O-])[C@@H]2C[C@@H](OC(=O)[C@H](CO)c3ccccc3)C[C@H]1[C@@H]1O[C@@H]12 (some centres unmarked)
result_ITMP, %: -4.04

molecule: CNC(=O)c1ccccc1Nc1nc(Nc2ccc3c(c2OC)CCC[C@H](N2CCN(CCO)CC2)C3)ncc1Cl
result_ITMP, %: 139

molecule: Fc1cc(F)c2c(c1)[C@H]1C=CC[C@H]1C(c1cccnc1)N2 (mixture of isomers)
result_ITMP, %: -14.4

molecule: NC[C@@H]1O[C@H](O[C@H]2[C@@H](O)[C@H](O[C@@H]3[C@@H](O)[C@H](N)C[C@H](N)[C@H]3O[C@H]3O[C@H](CN)[C@@H](O)[C@H](O)[C@H]3N)O[C@@H]2CO)[C@H](N)[C@@H](O)[C@@H]1O
result_ITMP, %: -2.72

molecule: NC1C[C@H]1c1ccccc1 (some centres unmarked)
result_ITMP, %: -1.26

molecule: C=C1/C(=C\C=C2/CCC[C@]3(C)[C@@H]([C@H](C)CCCC(O)(C(F)(F)F)C(F)(F)F)CC[C@@H]23)C[C@@H](O)C[C@@H]1O
result_ITMP, %: 0.82

molecule: C[C@@H]1CN(CC(=O)Nc2ccc3c(c2)Cc2cccc(-c4cc(=O)cc(N5CCOCC5)o4)c2S3)C[C@H](C)O1
result_ITMP, %: 4.24

molecule: Cn1cc(/C=C2/C(=O)Nc3cccnc32)c2ccccc21
result_ITMP, %: 2.75

molecule: COc1ccc(CCNCc2ccc(OCc3ccc(Cl)nc3)c(OC)c2)cc1OC
result_ITMP, %: 59.3

molecule: O=S(=O)([O-])CC(S)CS (centres unmarked)
result_ITMP, %: -3.17

molecule: C[C@H](CCC(=O)O)[C@H]1CC[C@H]2[C@@H]3C[C@H](O)[C@@H]4C[C@H](O)CC[C@]4(C)[C@H]3CC[C@]12C
result_ITMP, %: 1.59

molecule: CCc1cccc(CC)c1NC(=O)N1Cc2[nH]nc(NC(=O)c3ccc(N4CCN(C)CC4)cc3)c2C1
result_ITMP, %: 3.48

molecule: CCN(CCO)CCCC(C)Nc1ccnc2cc(Cl)ccc12 (centres unmarked)
result_ITMP, %: 1.54

molecule: CN1CCC(COc2cnc(-c3cccc(Cn4nc(-c5cccc(C#N)c5)ccc4=O)c3)nc2)CC1
result_ITMP, %: 2.15

molecule: CN1CCN(c2ccc(C(=O)Nc3n[nH]c4ccc(Cc5cc(F)cc(F)c5)cc34)c(NC3CCOCC3)c2)CC1
result_ITMP, %: 96.5

molecule: COc1ccc(COc2ccc(Cc3cnc(N)nc3N)cc2OC)cc1
result_ITMP, %: -3.18

molecule: O=C([O-])[C@H](CC(=O)N1C[C@H]2CCCC[C@H]2C1)Cc1ccccc1
result_ITMP, %: -4.71

molecule: CN1CCN(Cc2ccc(Nc3ncc(Cl)c(Nc4ccccc4S(=O)(=O)N(C)C)n3)cc2)CC1
result_ITMP, %: 1.65

molecule: C=C[C@@]1(C)CC(=O)[C@]2(O)[C@@]3(C)[C@@H](O)CCC(C)(C)[C@@H]3C(OC(=O)CCN(C)C)C(OC(C)=O)[C@@]2(C)O1 (some centres unmarked)
result_ITMP, %: 4.63

molecule: CC(=O)Nc1ccc(NC(=S)NC(=O)c2ccc(C(C)(C)C)cc2)cc1
result_ITMP, %: 2.55

Source listed as paper PMC13083723.
